The measured values listed here are drawn from ChEMBL document CHEMBL5291721.

Below, each entry is listed alongside its reported AC50.
# assayed_target: Gamma-aminobutyric acid receptor subunit alpha-1 (Rattus norvegicus, UniProt P62813); further: assay procedure not described here
# Sequence (P62813 whole entry): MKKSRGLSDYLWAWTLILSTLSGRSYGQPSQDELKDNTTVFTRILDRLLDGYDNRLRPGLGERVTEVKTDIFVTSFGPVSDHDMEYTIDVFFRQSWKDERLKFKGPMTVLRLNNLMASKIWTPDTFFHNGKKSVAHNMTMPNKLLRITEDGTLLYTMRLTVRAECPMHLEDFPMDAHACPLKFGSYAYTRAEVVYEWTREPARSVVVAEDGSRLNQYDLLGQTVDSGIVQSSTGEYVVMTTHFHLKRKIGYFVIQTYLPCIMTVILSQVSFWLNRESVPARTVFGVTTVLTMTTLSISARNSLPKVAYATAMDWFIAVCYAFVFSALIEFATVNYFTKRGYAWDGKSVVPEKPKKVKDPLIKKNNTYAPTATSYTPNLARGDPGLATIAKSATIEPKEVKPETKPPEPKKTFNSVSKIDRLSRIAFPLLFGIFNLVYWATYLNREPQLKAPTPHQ
# Type: functional

Worked examples follow.
Cc1cn([C@H]2C=C[C@@H](CO)O2)c(=O)[nH]c1=O [STAVUDINE] ... > 10 µM
Cc1cc(C(C)(C)C)c(O)c(C)c1CC1=NCCN1 [OXYMETAZOLINE] ... > 30 µM
NCC(=O)CCC(=O)O [AMINOLEVULINIC ACID] ... > 30 µM
CCC(C(=O)O)c1ccc(N2Cc3ccccc3C2=O)cc1 (stereo not given) [INDOBUFEN] ... > 30 µM
N[C@@H]1[C@H]2CN(c3nc4c(cc3F)c(=O)c(C(=O)O)cn4-c3ccc(F)cc3F)C[C@@H]12 [TROVAFLOXACIN] ... > 30 µM
N#Cc1ccc([C@H]2CCc3cncn32)c(F)c1 [OSILODROSTAT] ... > 10 µM
Cc1cc(C)c(NC(=O)CN(CC(=O)O)CC(=O)O)c(C)c1Br [MEBROFENIN] ... > 30 µM
CN1C(=O)C(O)N=C(c2ccccc2)c2cc(Cl)ccc21 (stereo not given) [TEMAZEPAM] ... 0.044 µM

Given item CCCc1nc(C(C)(C)O)c(C(=O)OCc2oc(=O)oc2C)n1Cc1ccc(-c2ccccc2-c2nnn[nH]2)cc1 [OLMESARTAN MEDOXOMIL] , the value recorded as its AC50 is > 10 µM

response.value for COc1ccc2c3c1O[C@H]1C(=O)CC[C@@]4(O)[C@@H](C2)N(C)CC[C@]314 [OXYCODONE] (field: AC50) = > 30 µM

Field AC50 (entry Brc1c(NC2=NCCN2)ccc2nccnc12 [BRIMONIDINE] ) reads > 30 µM

The reported value for O=C(O)/C=C/c1ccc(Cn2ccnc2)cc1 [OZAGREL] in terms of AC50 is > 30 µM

Reported AC50 of NC(=O)CN1CC(O)CC1=O (stereo not given) [OXIRACETAM] : > 30 µM

AC50 recorded for this compound, C[C@H]1CNCCc2ccc(Cl)cc21 [LORCASERIN] , is > 30 µM

// recorded AC50 for O=C(O)CCCCCCCC(=O)O [AZELAIC ACID] : > 10 µM

Notebook: O=[N+]([O-])c1cn2c(n1)OC[C@@H](OCc1ccc(OC(F)(F)F)cc1)C2 [PRETOMANID] , AC50 read as > 10 µM

---

AC50 data for Sodium-dependent dopamine transporter (Homo sapiens, UniProt Q01959) follow.

Some solved cases for reference:
CCOC(=O)OC(C)OC1=C(C(=O)Nc2ccccn2)N(C)S(=O)(=O)c2ccccc21 (configuration not stated) ... > 30 µM
c1cnc(N2CCN(Cc3ccc4c(c3)OCO4)CC2)nc1 ... > 30 µM
COC(=O)C1=C(C)NC(C)=C(C(=O)OC2CCCN(Cc3ccccc3)C2)C1c1cccc([N+](=O)[O-])c1 (configuration not stated) ... 12 µM
Clc1ccccc1C(c1ccccc1)(c1ccccc1)n1ccnc1 ... 14.8 µM
NCC[C@H](O)C(=O)N[C@@H]1C[C@H](N)[C@@H](O[C@H]2O[C@H](CN)[C@@H](O)[C@H](O)[C@H]2O)[C@H](O)[C@H]1O[C@H]1O[C@H](CO)[C@@H](O)[C@H](N)[C@H]1O ... > 10 µM

AC50 for C[C@H](N)[C@H](O)c1cccc(O)c1 is > 10 µM

// sample CCOC(=O)[N-]c1cn(N2CCOCC2)n[o+]1 , its AC50 was > 30 µM

For this molecule ( Clc1ccc(CCCOCCCN2CCCCC2)cc1 ), measured AC50 is 8.5 µM

Just so you know, measured AC50 for CC1(C)CCC(CN2CCN(c3ccc(C(=O)NS(=O)(=O)c4ccc(NCC5CCOCC5)c([N+](=O)[O-])c4)c(Oc4cnc5[nH]ccc5c4)c3)CC2)=C(c2ccc(Cl)cc2)C1 came out at 22 µM

The molecule COc1cc2nc(N(C)CCCNC(=O)C3CCCO3)nc(N)c2cc1OC (configuration not stated) showed AC50 equal to > 30 µM

The value of AC50 measured for the molecule COc1ccc(C(=O)Nc2ccccc2CCC2CCCCN2C)cc1 (configuration not stated) [ENCAINIDE] turned out to be > 10 µM

Item: Cc1cccc(Nc2ccccc2C(=O)O)c1C | AC50: > 10 µM

Given item CN(C)CCC=C1c2ccccc2C=Cc2ccccc21 , the value recorded as its AC50 is > 30 µM

# AC50 of O=C(O)C[C@H](O)C[C@H](O)/C=C/c1c(C2CC2)nc2ccccc2c1-c1ccc(F)cc1 = > 30 µM

For reference, reported AC50 for C/C(O)=C(\C#N)C(=O)Nc1ccc(C(F)(F)F)cc1 [TERIFLUNOMIDE] stands at > 30 µM

The measured AC50 associated with COc1cccc(C2(O)CCCCC2CN(C)C)c1 (configuration not stated) reads > 10 µM

COc1ccccc1N1CCN(CCCNc2cc(=O)n(C)c(=O)n2C)CC1 has a reported AC50 of > 30 µM

---

This listing pairs compounds with measured AC50.
# assayed_target: B2 bradykinin receptor (Homo sapiens, UniProt P30411); further: assay procedure not described here
# Sequence (P30411 whole entry): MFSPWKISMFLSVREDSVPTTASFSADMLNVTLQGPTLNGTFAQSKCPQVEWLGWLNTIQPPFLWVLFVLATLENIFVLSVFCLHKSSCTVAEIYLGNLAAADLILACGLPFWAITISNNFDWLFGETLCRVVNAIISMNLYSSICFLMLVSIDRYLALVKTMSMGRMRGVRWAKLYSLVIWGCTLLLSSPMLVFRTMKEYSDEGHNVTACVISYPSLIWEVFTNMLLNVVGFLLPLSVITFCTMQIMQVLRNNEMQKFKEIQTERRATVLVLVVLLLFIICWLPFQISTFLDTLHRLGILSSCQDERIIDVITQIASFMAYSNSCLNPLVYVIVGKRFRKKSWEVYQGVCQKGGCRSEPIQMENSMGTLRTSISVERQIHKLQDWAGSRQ

Example entries and their recorded answers appear below.
Cc1ccc(S(=O)(=O)NC(=O)NN2CC3CCCC3C2)cc1 (stereo not drawn) [GLICLAZIDE] ... > 10 µM
COc1ccccc1OCCNCC(O)c1ccc(C)c(S(N)(=O)=O)c1 (stereo not drawn) [AMOSULALOL] ... > 30 µM
O=[N+]([O-])O[C@@H]1CO[C@H]2[C@@H]1OC[C@@H]2O [ISOSORBIDE MONONITRATE] ... > 30 µM
NS(=O)(=O)Cc1noc2ccccc12 [ZONISAMIDE] ... > 10 µM

response.value for CC(C)Cn1cnc2c(N)nc3ccccc3c21 [IMIQUIMOD] (field: AC50) = > 10 µM

Kindly note the recorded AC50 for COc1cc(NC(C)CCCN)c2ncccc2c1 (stereo not drawn) [PRIMAQUINE] , which is > 30 µM

---

AC50 data for Growth hormone secretagogue receptor type 1 (Homo sapiens) follow.

Look over these answered cases.
COc1ccc(-c2ccc3cc(C(=O)O)ccc3c2)cc1C12CC3CC(CC(C3)C1)C2 ... > 30 µM
Nc1ccn([C@H]2CC[C@@H](CO)O2)c(=O)n1 ... > 10 µM
CCCCCCOc1ccccc1C(N)=O [EXALAMIDE] ... > 30 µM
COc1cc2nc(N3CCN(C(=O)c4ccco4)CC3)nc(N)c2cc1OC ... > 30 µM
CCCSc1ccc2nc(NC(=O)OC)[nH]c2c1 ... > 10 µM

The reported value for C[C@]12CCC(=O)C=C1CC[C@@H]1[C@@H]2[C@@H](O)C[C@@]2(C)[C@H]1CC[C@]2(O)C(=O)CO [HYDROCORTISONE] in terms of AC50 is > 30 µM

For this compound ( Cc1cn([C@H]2C[C@H](N=[N+]=[N-])[C@@H](CO)O2)c(=O)[nH]c1=O ), measured AC50 is > 30 µM

AC50 reported for this compound CC(C)C[C@H]1C(=O)N2CCC[C@H]2[C@]2(O)O[C@](NC(=O)[C@@H]3C=C4c5cccc6[nH]c(Br)c(c56)C[C@H]4N(C)C3)(C(C)C)C(=O)N12 : 25 µM

---

Below, each entry is listed with its recorded AC50.
# assayed_target: Prostaglandin G/H synthase 1 (Homo sapiens); further: assay procedure not described here
# Sequence (P23219 whole entry): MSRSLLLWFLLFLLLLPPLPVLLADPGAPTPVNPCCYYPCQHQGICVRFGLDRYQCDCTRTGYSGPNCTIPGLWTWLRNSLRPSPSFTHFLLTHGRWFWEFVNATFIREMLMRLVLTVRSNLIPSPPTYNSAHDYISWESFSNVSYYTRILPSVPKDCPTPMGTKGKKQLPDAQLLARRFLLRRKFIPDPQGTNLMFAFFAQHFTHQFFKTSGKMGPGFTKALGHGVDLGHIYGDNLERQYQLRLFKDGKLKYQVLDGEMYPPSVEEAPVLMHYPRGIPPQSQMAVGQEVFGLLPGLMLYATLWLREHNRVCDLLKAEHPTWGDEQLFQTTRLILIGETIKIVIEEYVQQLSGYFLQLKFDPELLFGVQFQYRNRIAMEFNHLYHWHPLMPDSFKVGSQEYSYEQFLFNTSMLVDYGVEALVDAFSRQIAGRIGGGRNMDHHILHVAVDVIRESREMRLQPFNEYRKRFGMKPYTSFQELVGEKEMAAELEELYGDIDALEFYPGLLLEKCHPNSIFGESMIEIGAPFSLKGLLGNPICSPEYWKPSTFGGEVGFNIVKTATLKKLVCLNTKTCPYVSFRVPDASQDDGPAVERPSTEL
# Format: functional

Examples from the recorded data:
CCC1=C(C)CN(C(=O)NCCc2ccc(S(=O)(=O)NC(=O)N[C@H]3CC[C@H](C)CC3)cc2)C1=O [GLIMEPIRIDE] ... > 30 µM
Clc1ccc(C(OCCN2CCCCC2)c2ccccc2)cc1 (stereo not drawn) ... > 30 µM
O=C(CCNNC(=O)c1ccncc1)NCc1ccccc1 [NIALAMIDE] ... 1.65 µM

The value of AC50 measured for the compound O=C(Cc1ccc(-c2ccccc2)cc1)Nc1ccccn1 [DIFENPIRAMIDE] turned out to be > 30 µM

The compound listed as CC(C)(C)NCC(O)COc1cccc2c1SCCC2 (stereo not drawn) has a reported AC50 of > 30 µM

Sample NNc1nnc(NN)c2ccccc12 [DIHYDRALAZINE] ; AC50 observed: 0.434 µM

Form: compound = O=c1[nH]c(=O)n(C2CCCO2)cc1F (stereo not drawn) ; AC50 = > 30 µM

Memo: CC1(C)NC(=O)N(c2ccc([N+](=O)[O-])c(C(F)(F)F)c2)C1=O [NILUTAMIDE] , reported AC50: > 30 µM

# compound Cc1ccccc1OCC(O)CO (stereo not drawn) ; its AC50 = > 30 µM

The compound listed as OCCN1C[C@H](O)[C@@H](O)[C@H](O)[C@H]1CO has a reported AC50 of > 30 µM

The reported AC50 of the compound Cc1cccc(Nc2ccccc2C(=O)O)c1C was 0.0343 µM

Form: compound = O=C(Nc1ccc(Cl)cc1)Nc1ccc(Cl)c(Cl)c1 ; AC50 = > 30 µM

AC50 measured on OC(c1ccccc1)(c1ccccc1)C12CC[N+](CCOCc3ccccc3)(CC1)CC2 = > 30 µM
